# Protocol notes: Inhibition of RIP1 in human HT-29 cells assessed as reduction in TNFalpha/z-VAD-FMK-induced necrosis after 24 hrs by Cell Titer-Glo luminescent cell viability assay
Assay endpoint: pEC50
Please treat pEC50 as minus the base-10 logarithm of the molar concentration.

### Prompt Reported pEC50 for CCC(C)(C)C(=O)N(C)Cc1ccccc1F : what is it?
### Response 6.90

### Prompt Reported pEC50 for CCC(C)(C)C(=O)N(C)Cc1cc(F)cc(F)c1F : what is it?
### Response 7.92

### Prompt Reported pEC50 for CCC(C)(C)C(=O)N(C)Cc1cccc(F)c1F : what is it?
### Response 7.24

### Prompt Reported pEC50 for CCC(C)(C)C(=O)NCc1ccccc1Br : what is it?
### Response 5.07

### Prompt Reported pEC50 for CCC(C)(C)C(=O)N(C)Cc1cccc(Cl)c1 : what is it?
### Response 6.20

----------
# Protocol notes: Inhibition of RIP1 in human HT-29 cells assessed as reduction in TNFalpha/z-VAD-FMK-induced necrosis after 24 hrs by Cell Titer-Glo luminescent cell viability assay
Record form. Attribute: pEC50. Fill in for each entry.
Please treat pEC50 as minus the base-10 logarithm of the molar concentration.

### Prompt Reported pEC50 for CCC(C)(C)C(=O)N(O)Cc1cc(F)c(F)c(F)c1 : what is it?
### Response 7.31

### Prompt Reported pEC50 for CCC(C)(C)C(=O)N(C)Cc1ccc(F)cc1F : what is it?
### Response 6.20

### Prompt Reported pEC50 for CC1CCCC(C)N1C(=O)N(C)Cc1cc(F)cc(F)c1F (configuration not stated) : what is it?
### Response 5.82

### Prompt Reported pEC50 for CCC(C)(C)C(=O)N(C)Cc1cccs1 : what is it?
### Response 6.66

### Prompt Reported pEC50 for CN(Cc1cc(F)cc(F)c1F)C(=O)C1(C(F)(F)F)CCC1 : what is it?
### Response 6.18

### Prompt Reported pEC50 for CCC(C)(C)C(=O)N(C)Cc1cc(F)ccc1F : what is it?
### Response 7.44

### Prompt Reported pEC50 for CN(Cc1cc(F)cc(F)c1F)C(=O)C(C)(C)C : what is it?
### Response 7.01

### Prompt Reported pEC50 for CN(Cc1cc(F)cc(F)c1F)C(=O)C1(C(F)(F)F)CCCC1 : what is it?
### Response 5.91

### Prompt Reported pEC50 for CCC(C)(C)C(=O)N(C)Cc1cccnc1 : what is it?
### Response 5.76

### Prompt Reported pEC50 for CCC(C)(C)C(=O)N(C)Cc1sccc1C : what is it?
### Response 5.60

### Prompt Reported pEC50 for CCC(C)(C)C(=O)N(C)Cc1cc(C)c(C)s1 : what is it?
### Response 5.88

### Prompt Reported pEC50 for CCC(C)(C)C(=O)N(C)Cc1cccc(Br)c1 : what is it?
### Response 5.91

### Prompt Reported pEC50 for CCC(C)(C)C(=O)N(O)Cc1ccc(F)c(F)c1 : what is it?
### Response 7.25

### Prompt Reported pEC50 for CCC(C)(C)C(=O)N(C)Cc1ccco1 : what is it?
### Response 6.20

### Prompt Reported pEC50 for CCC(C)(C)C(=O)N(O)Cc1cc(F)cc(F)c1F : what is it?
### Response 7.13

### Prompt Reported pEC50 for CCC(C)(C)C(=O)NCc1ccccc1 : what is it?
### Response 5.39

### Prompt Reported pEC50 for CCC(C)(C)C(=O)NC(CO)c1ccccc1 (configuration not stated) : what is it?
### Response 5.97

### Prompt Reported pEC50 for CCC(C)(C)C(=O)N(C)Cc1cccc(F)c1 : what is it?
### Response 7.14

----------
# Protocol notes: Inhibition of RIP1 in human HT-29 cells assessed as reduction in TNFalpha/z-VAD-FMK-induced necrosis after 24 hrs by Cell Titer-Glo luminescent cell viability assay
Assay endpoint: log10 of EC50 (log10 of the value in nM)
Heads up, the numbers here are log10 of EC50 in nM units.

### Prompt Reported log10 of EC50 for CN(Cc1cc(F)cc(F)c1F)C(=O)C1(C)CCCCC1 : what is it?
### Response 2.69

### Prompt Reported log10 of EC50 for CCC(C)(C)C(=O)N(C)Cc1ccccc1 : what is it?
### Response 2.66

### Prompt Reported log10 of EC50 for CN(Cc1cc(F)cc(F)c1F)C(=O)C1CCC1 : what is it?
### Response 3.92

### Prompt Reported log10 of EC50 for CCC(C)(C)C(=O)N(C)Cc1c(F)cc(F)cc1F : what is it?
### Response 3.10

### Prompt Reported log10 of EC50 for CCC(C)(C)C(=O)N(C)Cc1ccc(C)s1 : what is it?
### Response 2.58

### Prompt Reported log10 of EC50 for CCC(C)(C)C(=O)N(O)Cc1ccccc1 : what is it?
### Response 1.45

### Prompt Reported log10 of EC50 for CCC(C)(C)C(=O)N(O)Cc1ccc(F)c(F)c1F : what is it?
### Response 2.42

### Prompt Reported log10 of EC50 for CCC(C)(C)C(=O)N(O)Cc1ccc(F)cc1 : what is it?
### Response 1.81

----------
# Protocol notes: Inhibition of RIP1 in human HT-29 cells assessed as reduction in TNFalpha/z-VAD-FMK-induced necrosis after 24 hrs by Cell Titer-Glo luminescent cell viability assay
pEC50: −log10 of the molar value.
Assay endpoint: pEC50

### Prompt Reported pEC50 for CCC(C)(C)C(=O)N(O)Cc1ccc(F)cc1F : what is it?
### Response 6.70

### Prompt Reported pEC50 for COC(C)(C)C(=O)N(C)Cc1cc(F)cc(F)c1F : what is it?
### Response < 5.00

### Prompt Reported pEC50 for CCC(C)(C)C(=O)N(C)Cc1ccc(F)cc1 : what is it?
### Response 6.09

### Prompt Reported pEC50 for CCC(C)(C)C(=O)N(C)Cc1ccccc1Cl : what is it?
### Response < 5.00

### Prompt Reported pEC50 for CCC(C)(C)C(=O)NCc1ccccc1F : what is it?
### Response 6.05

### Prompt Reported pEC50 for CCC(C)(C)C(=O)N(C)C(CO)c1ccccc1 (stereo not drawn) : what is it?
### Response < 5.00

### Prompt Reported pEC50 for CCC(C)(C)C(=O)NC(C)c1ccccc1 (stereo not drawn) : what is it?
### Response < 5.00

### Prompt Reported pEC50 for CCC(C)(C)C(=O)N(C)Cc1ccncc1 : what is it?
### Response < 5.00

----------
Record form. Attribute: EC50. Fill in for each entry.
# Protocol notes: Inhibition of RIP1 in human HT-29 cells assessed as reduction in TNFalpha/z-VAD-FMK-induced necrosis after 24 hrs by Cell Titer-Glo luminescent cell viability assay

### Prompt Reported EC50 for CC1CCCCN1C(=O)N(C)Cc1cc(F)cc(F)c1F (centres undefined) : what is it?
### Response > 3 µM

### Prompt Reported EC50 for CCC(C)(C)C(=O)NCc1cccc(Br)c1 : what is it?
### Response > 10 µM

### Prompt Reported EC50 for CCC(C)(C)C(=O)NC1(c2ccccc2)CC1 : what is it?
### Response > 5 µM

### Prompt Reported EC50 for CCC(C)(C)C(=O)N(C)C(C)(C)c1ccccc1 : what is it?
### Response > 10 µM

### Prompt Reported EC50 for CC(C)N(C(=O)N(C)Cc1cc(F)cc(F)c1F)C(C)C : what is it?
### Response > 3 µM

### Prompt Reported EC50 for CCN(Cc1ccccc1F)C(=O)C(C)(C)CC : what is it?
### Response > 10 µM

### Prompt Reported EC50 for CN(Cc1cc(F)cc(F)c1F)C(=O)C1(C)CC1 : what is it?
### Response > 10 µM

### Prompt Reported EC50 for CCC(C)(C)C(=O)N(C)C(C)c1ccccc1 (centres undefined) : what is it?
### Response > 10 µM

### Prompt Reported EC50 for CCC(C)(C)C(=O)N(C)Cc1ccn(C)n1 : what is it?
### Response > 10 µM

----------
# Protocol notes: Inhibition of RIP1 in human HT-29 cells assessed as reduction in TNFalpha/z-VAD-FMK-induced necrosis after 24 hrs by Cell Titer-Glo luminescent cell viability assay
pEC50: −log10 of the molar value.
Assay endpoint: pEC50

### Prompt Reported pEC50 for CC(C)N(C)C(=O)N(C)Cc1cc(F)cc(F)c1F : what is it?
### Response < 5.52

### Prompt Reported pEC50 for CCC(C)(C)C(=O)N(C)Cc1cnc(C)s1 : what is it?
### Response < 5.00

### Prompt Reported pEC50 for CCC(C)(C)C(=O)N(C)Cc1cccc(O)c1 : what is it?
### Response < 5.52

### Prompt Reported pEC50 for CN(Cc1cc(F)cc(F)c1F)C(=O)C(C)(C)CO : what is it?
### Response < 5.52

### Prompt Reported pEC50 for CCC(C)(C)C(=O)NC(C)(C)c1ccccc1 : what is it?
### Response < 5.00
